- System: AURKC (human)
Quantity Kind: IC50 (nM)

- Smiles Data: "N=C1NC(=O)/C(=C/c2ccc(-c3cncc4ccccc34)o2)S1"
  Measure Unit: "nM"
  Measured: 154

---

- System: TNIK (human) (UniProt Q9UKE5)
- Sequence (Q9UKE5 whole entry, looked up): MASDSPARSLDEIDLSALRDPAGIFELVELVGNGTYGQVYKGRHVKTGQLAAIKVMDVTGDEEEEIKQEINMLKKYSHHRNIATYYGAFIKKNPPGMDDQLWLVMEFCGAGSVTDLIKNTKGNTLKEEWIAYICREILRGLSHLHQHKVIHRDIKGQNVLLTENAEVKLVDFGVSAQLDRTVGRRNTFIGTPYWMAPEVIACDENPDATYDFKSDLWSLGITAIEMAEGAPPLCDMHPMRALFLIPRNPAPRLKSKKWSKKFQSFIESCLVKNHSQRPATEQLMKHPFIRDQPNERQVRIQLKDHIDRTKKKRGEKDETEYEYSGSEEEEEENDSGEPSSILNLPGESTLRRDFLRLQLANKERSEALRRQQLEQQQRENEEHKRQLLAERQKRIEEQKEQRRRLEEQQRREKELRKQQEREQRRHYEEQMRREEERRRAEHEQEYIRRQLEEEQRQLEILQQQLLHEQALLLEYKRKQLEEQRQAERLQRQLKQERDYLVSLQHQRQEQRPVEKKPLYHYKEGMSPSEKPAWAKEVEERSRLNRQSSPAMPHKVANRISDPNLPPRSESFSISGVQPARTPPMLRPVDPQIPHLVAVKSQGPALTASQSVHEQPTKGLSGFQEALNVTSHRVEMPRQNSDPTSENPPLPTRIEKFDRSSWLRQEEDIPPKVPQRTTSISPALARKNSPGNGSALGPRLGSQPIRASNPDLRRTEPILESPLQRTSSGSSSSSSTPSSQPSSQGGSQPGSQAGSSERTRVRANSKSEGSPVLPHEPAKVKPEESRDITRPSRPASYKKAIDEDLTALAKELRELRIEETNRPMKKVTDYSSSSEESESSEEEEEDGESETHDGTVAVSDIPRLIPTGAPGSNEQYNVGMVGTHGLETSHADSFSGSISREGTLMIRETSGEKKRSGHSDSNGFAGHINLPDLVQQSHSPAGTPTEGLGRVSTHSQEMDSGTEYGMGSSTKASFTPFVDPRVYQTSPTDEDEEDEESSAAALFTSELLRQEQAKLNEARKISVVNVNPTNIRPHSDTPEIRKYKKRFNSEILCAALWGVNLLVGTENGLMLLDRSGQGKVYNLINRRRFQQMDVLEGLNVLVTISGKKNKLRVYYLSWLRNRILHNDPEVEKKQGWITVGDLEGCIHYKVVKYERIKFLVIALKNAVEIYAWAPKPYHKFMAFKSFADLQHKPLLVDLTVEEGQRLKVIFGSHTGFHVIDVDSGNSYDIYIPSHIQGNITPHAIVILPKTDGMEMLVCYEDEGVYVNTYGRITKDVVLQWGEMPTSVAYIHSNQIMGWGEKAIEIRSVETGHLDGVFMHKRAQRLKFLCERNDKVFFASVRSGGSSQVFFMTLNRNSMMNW
- Experimental Protocol: KINOMEscan competition binding
- Measurement Context: compound 10.0 µM

- Smiles Data: "CS(=O)(=O)Nc1ccc(-c2cncc(/C=C3\\SC(=N)NC3=O)c2)cc1"
  Measure Unit: "%"
  kinase still bound, per cent of control: 19
- Smiles Data: "N=C1NC(=O)/C(=C/c2c[nH]c(=O)c(-c3ccc(N4CCNCC4)nc3)c2)S1"
  Measure Unit: "%"
  kinase still bound, per cent of control: 18
- Smiles Data: "O=C1NC(=S)S/C1=C\\c1ccc(-c2cncc3ccccc23)o1"
  Measure Unit: "%"
  kinase still bound, per cent of control: 11
- Smiles Data: "COc1cc(N2CCN(C)CC2)ccc1Nc1ncc2c(n1)N(C)c1sccc1C(=O)N2C"
  Measure Unit: "%"
  kinase still bound, per cent of control: 55
- Smiles Data: "CS(=O)(=O)Nc1ccc(-c2ncc(/C=C3\\SC(=N)NC3=O)s2)cc1"
  Measure Unit: "%"
  kinase still bound, per cent of control: 16
- Smiles Data: "NS(=O)(=O)c1ccc(-c2ccc(/C=C3\\SC(=S)N(CC(=O)O)C3=O)o2)cc1"
  Measure Unit: "%"
  kinase still bound, per cent of control: 32
- Smiles Data: "CN1CCN(c2ccc(C(=O)Nc3ncc4c(n3)N(C)c3ccccc3C(=O)N4C)cc2)CC1"
  Measure Unit: "%"
  kinase still bound, per cent of control: 100
- Smiles Data: "CN1C(=O)c2ccccc2N(C)c2nc(NS(=O)(=O)c3ccc(N)cc3)ncc21"
  Measure Unit: "%"
  kinase still bound, per cent of control: 100
- Smiles Data: "CN1C(=O)[C@H]2CCC[C@H]2N(C2CCCC2)c2nc(Nc3ccc(C(N)=O)cc3)ncc21"
  Measure Unit: "%"
  kinase still bound, per cent of control: 13
- Smiles Data: "COc1cc(N2CCN(C)CC2)ccc1Nc1ncc2c(n1)N(C)c1ccccc1N(C)C2=O"
  Measure Unit: "%"
  kinase still bound, per cent of control: 90
- Smiles Data: "CN1C(=O)c2ccccc2N(C)c2nc(Nc3ccc(N4CCC(O)CC4)cc3)ncc21"
  Measure Unit: "%"
  kinase still bound, per cent of control: 83
- Smiles Data: "COc1cc(N2CCC(O)CC2)ccc1Nc1ncc2c(n1)N1CCc3cccc(c31)C(=O)N2C"
  Measure Unit: "%"
  kinase still bound, per cent of control: 48
- Smiles Data: "CN1C(=O)[C@H]2CCC[C@H]2N(C2CCCC2)c2nc(Nc3ccc4ncccc4c3)ncc21"
  Measure Unit: "%"
  kinase still bound, per cent of control: 14
- Smiles Data: "N=C1NC(=O)/C(=C/c2ccc(-c3cncc4ccccc34)o2)S1"
  Measure Unit: "%"
  kinase still bound, per cent of control: 8
- Smiles Data: "COc1cc(N2CCN(C)CC2)ccc1Nc1ncc2c(n1)Nc1ccccc1NC2=O"
  Measure Unit: "%"
  kinase still bound, per cent of control: 82
- Smiles Data: "O=C1NC(=O)/C(=C/c2c[nH]c(=O)c(-c3ccc(N4CCNCC4)nc3)c2)S1"
  Measure Unit: "%"
  kinase still bound, per cent of control: 11

// data source = the kinase profiling compilation of Christmann-Franck et al. (2016)
